melting point by entry:
Structures can show the parent of a compound that is named as a salt.

Solved entries:
Compound	melting point
COc1cc(/C=C/C(=O)OCCCN(CCCCCCCOC(=O)c2cc(OC)c(OC)c(OC)c2)CCCOc2ccc3ccc(=O)oc3c2)cc(OC)c1OC (as salt: hydrochloride) [Compound 22]	73 to 76 °C
COc1cc(C(=O)OCCCN(CCCCCOC(=O)c2c3ccccc3cc3ccccc23)CCCOc2ccc3ccc(=O)oc3c2)cc(OC)c1OC (as salt: hydrochloride) [Compound 8]	120 to 123 °C

# input compound: COc1cc(/C=C/C(=O)OCCCN(CCCCCCOC(=O)c2c3ccccc3cc3ccccc23)CCCOc2ccc3ccc(=O)oc3c2)cc(OC)c1OC (as salt: hydrochloride) [Compound 16] ; wanted: its melting point
92 to 95 °C
